// provenance: BindingDB's records for doi:10.1021/jm00011a006

# TESTED_TARGET: Aldehyde dehydrogenase (Saccharomyces cerevisiae)
# ASSAY_INFO: In vitro inhibition against yeast Aldehyde dehydrogenase
Form field: IC50 (one value per entry).

Answered examples (2):
COMPOUND_STRUCTURE_STRING | IC50
CCOC(=O)On1nnc2ccccc21 | 270 µM
CCOC(=O)ON1C(=O)c2ccccc2S1(=O)=O | 56 µM

**Query** Returns the measured IC50 for the input compound. Input: CCOC(=O)ON(C(=O)OCC)S(=O)(=O)c1ccc(Cl)cc1
**Result** 24 µM
